For each entry below, report its pIC50 value.
# Target System: muscarinic receptors (cerebral cortex)
# Assay Procedure: Binding to muscarinic receptors, 3H-NMS displacement, cerebral cortex
# Condition Info: 0.3 nM 3H-NMS, 30° C., 45 min, pH 7.4; read-out: IC50 receptor binding test, Cortex (C)
pIC50 field: float, defined as -log10 of concentration (mol/L).

compound CCN(CC)CC1CCCCN1CC#CCN1c2ccccc2C(=O)Nc2cccnc21 (stereo not drawn) [C] , pIC50 observed: 6.70

compound CCN(CC)CC1CCCCN1CCCCN1c2ccccc2C(=O)Nc2cccnc21 (stereo not drawn) [B] , pIC50 observed: 7.70

compound O=C1Nc2cccnc2N(CCCCCCN2CCCCC2)c2ccccc21 [A] , pIC50 observed: 8.40
